assaySystem: Beta Secretase enzyme (BACE1) (Homo sapiens)
experimentalDetails: In vitro enzymatic BACE FRET assay
Assay type: biochemical
conditionParameters: read-out: BACE1 FRET assay IC50
experimentalReadout: IC50 (nM)

{"molecule": "COc1cnc2c(Nc3ccc(F)c([C@]4(C)CS(=O)(=O)C5(CCCC5)C(N)=N4)c3)nccc2c1 [Example 84]", "experimentalReadout": "IC50", "numericValue": 23.4}
{"molecule": "Cc1cnc(C(=O)Nc2ccc(F)c([C@]3(C)CS(=O)(=O)C(C)(C)C(N)=N3)c2)c(C)n1 [Example 111]", "experimentalReadout": "IC50", "numericValue": 18.2}
{"molecule": "CC1(C)C(N)=N[C@](CF)(c2cc(NC(=O)c3ccc(OCC#CCF)cn3)ccc2F)CS1(=O)=O [Example 389]", "experimentalReadout": "IC50", "numericValue": 0.26}
{"molecule": "Cc1cc(C(F)F)cnc1C(=O)Nc1ccc(F)c([C@@]2(C)N=C(N)C3(CCC3)S(=O)(=O)[C@@H]2F)c1 [Example 136]", "experimentalReadout": "IC50", "numericValue": 2.1}
{"molecule": "Cc1cc(C(F)F)cnc1C(=O)Nc1ccc(F)c([C@]2(C)CS(=O)(=O)C3(CCC3)C(N)=N2)c1 [Example 123]", "experimentalReadout": "IC50", "numericValue": 4.57}
{"molecule": "COc1cc(Cl)cnc1C(=O)Nc1ccc(F)c([C@]2(CF)CS(=O)(=O)C(C)(C)C(N)=N2)c1 [Example 382]", "experimentalReadout": "IC50", "numericValue": 1.8}

I. NC1=N[C@](CF)(c2cc(N)ccc2F)CS(=O)(=O)C12CCC2 [Example 417]
II. COc1cnc2c(Nc3ccc(F)c([C@]4(C(F)F)CS(=O)(=O)C(C)(C)C(N)=N4)c3)nccc2c1 [Example 67]
III. Cc1cc(Cl)cnc1C(=O)Nc1ccc(F)c([C@]2(CF)CS(=O)(=O)C(C)(C)C(N)=N2)c1 [Example 408]
IV. CC1(C)C(N)=N[C@](C)(c2cc(Nc3ccc4c(c3)OC(F)(F)O4)cnc2F)CS1(=O)=O [Example 414]
In this exercise, place the 4 molecules in ascending sequence of their recorded IC50. Your reply should list the labels following the order given in the request.
III, II, I, IV

* * *

assaySystem: Beta Secretase enzyme (BACE1) (Homo sapiens, UniProt P56817)
Sequence (P56817 46-501): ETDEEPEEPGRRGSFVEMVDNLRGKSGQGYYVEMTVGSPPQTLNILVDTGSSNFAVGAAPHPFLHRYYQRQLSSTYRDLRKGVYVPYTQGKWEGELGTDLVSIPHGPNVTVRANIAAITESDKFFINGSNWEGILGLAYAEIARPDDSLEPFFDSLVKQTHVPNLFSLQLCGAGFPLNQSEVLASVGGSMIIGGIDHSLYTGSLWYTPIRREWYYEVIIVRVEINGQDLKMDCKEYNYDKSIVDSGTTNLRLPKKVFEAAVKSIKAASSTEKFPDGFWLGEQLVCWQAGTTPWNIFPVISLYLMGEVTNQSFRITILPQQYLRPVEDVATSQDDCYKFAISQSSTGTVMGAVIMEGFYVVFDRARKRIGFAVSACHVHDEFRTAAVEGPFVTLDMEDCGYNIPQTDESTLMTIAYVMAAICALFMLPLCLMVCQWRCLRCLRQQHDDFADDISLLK
experimentalDetails: In vitro enzymatic BACE FRET assay
Format: biochemical
conditionParameters: average IC50, enzyme assay; read-out: BACE1 FRET assay IC50
pIC50: −log10 of the molar value.
experimentalReadout: pIC50

a. C[C@]1(F)C(N)=N[C@](C)(c2cc(NC(=O)c3ccc(C(F)F)cn3)ccc2F)CS1(=O)=O
b. Cc1cc(OC(F)F)cnc1C(=O)Nc1cc([C@]2(C)CS(=O)(=O)C(C)(C)C(N)=N2)c(=O)n(C)c1
c. CC1(C)C(N)=N[C@](C)(c2cc(Oc3ccc(C(F)(F)F)cn3)ccc2F)CS1(=O)=O
d. C[C@]1(F)C(N)=N[C@](C)(c2cc(Nc3ncnc4cc(Cl)cnc34)ccc2F)CS1(=O)=O
# rank_down: sort by pIC50, max first Your reply should list the labels following the order given in the request.
a, d, b, c

* * *

assaySystem: Cathepsin D (Cat D) (Homo sapiens)
Construct: Recombinant Cat D was expressed in CHO cells; made in house; host or cells: CHO cells
Sequence (P07339 65-412, species assumed): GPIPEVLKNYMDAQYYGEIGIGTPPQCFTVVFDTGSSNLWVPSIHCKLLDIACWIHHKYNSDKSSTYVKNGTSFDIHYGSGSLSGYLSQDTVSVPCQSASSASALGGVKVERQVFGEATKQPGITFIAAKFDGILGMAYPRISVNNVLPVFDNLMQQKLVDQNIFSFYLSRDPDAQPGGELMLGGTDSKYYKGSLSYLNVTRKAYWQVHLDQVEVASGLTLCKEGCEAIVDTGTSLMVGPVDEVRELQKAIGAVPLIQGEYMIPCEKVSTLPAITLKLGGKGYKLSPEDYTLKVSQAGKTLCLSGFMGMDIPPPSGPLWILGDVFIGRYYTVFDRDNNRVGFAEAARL
experimentalDetails: In vitro enzymatic Cathepsin D (Cat D) FRET assay
Type: biochemical
conditionParameters: read-out: CatD IC50
experimentalReadout: IC50 (µM)

{"molecule": "COc1cnc2c(Nc3ccc(F)c([C@]4(CF)CS(=O)(=O)C(C)(C)C(N)=N4)c3)nccc2n1 [Example 447]", "unitSpec": "µM", "numericValue": 1120}
{"molecule": "C[C@@]1(c2cc(Br)cnc2F)CS(=O)(=O)C2(CC2)C(N)=N1 [Example 455]", "unitSpec": "µM", "numericValue": 100}
{"molecule": "Cc1cccc(Oc2ccc(F)c([C@]3(C)CS(=O)(=O)C(C)(C)C(N)=N3)c2)n1 [Example 266]", "unitSpec": "µM", "numericValue": 407}
{"molecule": "CC1(C)C(N)=N[C@](C)(c2cc(Oc3ncc(Cl)cc3Cl)ccc2F)CS1(=O)=O [Example 299]", "unitSpec": "µM", "numericValue": 82.4}

1. CC1(C)C(N)=N[C@](C)(c2cc(Nc3ncc(F)c4cc(Cl)cnc34)ccc2F)CS1(=O)=O [Example 49]
2. CC1(C)C(N)=N[C@](C)(c2cc(Nc3nccc4nc(OCCF)cnc34)ccc2F)CS1(=O)=O [Example 441]
Given the listed records, identify the one among 1 and 2 with higher IC50. Your answer should be the label attached to the chosen record.
2
